Target: human Cereblon WT GST-tagged protein (Homo sapiens, UniProt Q96SW2)
Construct: purchased CISBIO 64BDCRBNPEH
Sequence (Q96SW2 whole entry): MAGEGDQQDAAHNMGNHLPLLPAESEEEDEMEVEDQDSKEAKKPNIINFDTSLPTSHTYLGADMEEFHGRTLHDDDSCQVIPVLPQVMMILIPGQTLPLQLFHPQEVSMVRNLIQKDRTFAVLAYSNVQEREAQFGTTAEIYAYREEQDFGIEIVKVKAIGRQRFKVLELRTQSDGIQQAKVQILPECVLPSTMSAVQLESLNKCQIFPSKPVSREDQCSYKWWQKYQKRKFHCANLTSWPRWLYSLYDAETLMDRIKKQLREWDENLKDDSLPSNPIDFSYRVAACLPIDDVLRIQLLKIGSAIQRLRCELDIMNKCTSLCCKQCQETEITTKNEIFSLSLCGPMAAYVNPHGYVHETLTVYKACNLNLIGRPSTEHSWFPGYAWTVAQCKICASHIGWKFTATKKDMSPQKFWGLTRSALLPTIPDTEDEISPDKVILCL
Experiment: CRBN-binding affinity by HTRF (CEREBLON BINDING kit)
Details: HTRF inhibitory activity, CEREBLON BINDING kit; read-out: HTRF IC50
pIC50: −log10 of the molar value.
Entries annotated with measured pIC50

Solved entries (count: 10):
>>> df
                                   molecule  readoutlabel      observed
0  Cc1nc(C2CCN(Cc3ccc4c(c3)CN(C3CCC(=O)NC3=O)C4=O)CC2)c2c3c(sc2n1)CCC3 (stereo not shown)         pIC50  6.00 to 6.30
1  O=C1CCC(N2Cc3cc(CN4CCC(c5ccc(Br)cc5)CC4)ccc3C2=O)C(=O)N1 (stereo not shown)         pIC50  6.00 to 6.30
2  O=C1CCC(N2Cc3cc(CN4CCN(c5c(F)cccc5F)CC4)ccc3C2=O)C(=O)N1 (stereo not shown)         pIC50  6.00 to 6.30
3  O=C1CCC(N2Cc3cc(CN4CC(N5CCc6cc(F)ccc65)C4)ccc3C2=O)C(=O)N1 (stereo not shown)         pIC50        > 6.30
4  Cc1cc2c(C3CCN(Cc4ccc5c(c4)CN(C4CCC(=O)NC4=O)C5=O)CC3)ncnc2s1 (stereo not shown)         pIC50  6.00 to 6.30
5  O=C1CCC(N2Cc3cc(CN4CCN(c5c[nH]c6ncccc56)CC4)ccc3C2=O)C(=O)N1 (stereo not shown)         pIC50        > 6.30
6  O=C1CCC(N2Cc3cc(CN4CCN(c5nc(N6CCCCC6)nc6c5SCC6)CC4)ccc3C2=O)C(=O)N1 (stereo not shown)         pIC50  6.00 to 6.30
7  Cc1cc2c(N3CCN(Cc4ccc5c(c4)CN(C4CCC(=O)NC4=O)C5=O)CC3)ncnc2s1 (stereo not shown)         pIC50  6.00 to 6.30
8  O=C1CCC(N2Cc3cc(CN4CC=C(c5cccc(F)c5Cl)CC4)ccc3C2=O)C(=O)N1 (stereo not shown)         pIC50  6.00 to 6.30
9  O=C1CCC(N2Cc3cc(CN4CC=C(c5cncc(Cl)c5)CC4)ccc3C2=O)C(=O)N1 (stereo not shown)         pIC50  6.00 to 6.30

In: Could you tell me which pIC50 is on file for O=C1CCC(N2Cc3cc(CN4CCC(c5cccc(F)c5Cl)CC4)ccc3C2=O)C(=O)N1 (stereo not shown) ?
Out: 5.82 to 6.00

In: Moving on to the next molecule: O=C1CCC(N2Cc3cc(CN4CCN(c5cc(F)cc(F)c5)CC4)ccc3C2=O)C(=O)N1 (stereo not shown)
Out: 6.00 to 6.30

In: Moving on to the next molecule: O=C1CCC(N2Cc3cc(CN4CCN(c5ccc(C(F)(F)F)cc5)CC4)ccc3C2=O)C(=O)N1 (stereo not shown)
Out: 5.82 to 6.00

In: Moving on to the next molecule: Cc1nc(N2CCN(Cc3ccc4c(c3)CN(C3CCC(=O)NC3=O)C4=O)CC2)c2c3c(sc2n1)CCCC3 (stereo not shown)
Out: > 6.30

In: Moving on to the next molecule: Cc1csc2ncnc(C3=CCN(Cc4ccc5c(c4)CN(C4CCC(=O)NC4=O)C5=O)CC3)c12 (stereo not shown)
Out: 6.00 to 6.30

In: Moving on to the next molecule: O=C1CCC(N2Cc3cc(CN4CCN(c5ncnc6sc7c(c56)CCC7)CC4)ccc3C2=O)C(=O)N1 (stereo not shown)
Out: > 6.30
